Where do these numbers come from? They come from ChEMBL document CHEMBL1134713.

Reported pIC50 values follow for various molecules
System: L1210
Assay: Cytotoxicity against L1210 cell proliferation, measured using microculture tetrazolium assay (MTA)
Assay type: functional, cell-based, Mus musculus
Conditions: Mus musculus, L1210
pIC50: −log10 of the molar value.

{"MOLECULE": "CC[C@]12C=C(C(=O)OC)c3c(CC4Nc5c(F)cccc5C(Nc5ccccc5F)C4c4c5n(c6ccccc46)[C@H]4N(O)CCC[C@@]4(CC)C=C5C(=O)OC)c4ccccc4n3[C@H]1N(O)CCC2 (stereo not given in full)", "SYSTEM": "L1210", "MODIFIER_SIGN": "=", "pIC50": 4.85}
{"MOLECULE": "CC[C@]12C=C(C(=O)OC)c3c(CCNc4ccc(F)cc4)c4ccccc4n3[C@H]1N(O)CCC2", "SYSTEM": "L1210", "MODIFIER_SIGN": "=", "pIC50": 4.81}
{"MOLECULE": "CC[C@]12C=C(C(=O)OC)c3c(CC4Nc5ccc(Cl)cc5CC4c4c5n(c6ccccc46)[C@H]4N(O)CCC[C@@]4(CC)C=C5C(=O)OC)c4ccccc4n3[C@H]1N(O)CCC2 (stereo not given in full)", "SYSTEM": "L1210", "MODIFIER_SIGN": "=", "pIC50": 5.44}
{"MOLECULE": "CC[C@]12C=C(C(=O)OC)c3c(CC4Nc5ccc(O)cc5C(OC)C4c4c5n(c6ccccc46)[C@H]4N(O)CCC[C@@]4(CC)C=C5C(=O)OC)c4ccccc4n3[C@H]1N(O)CCC2 (stereo not given in full)", "SYSTEM": "L1210", "MODIFIER_SIGN": "=", "pIC50": 6.05}
{"MOLECULE": "CC[C@]12C=C(C(=O)OC)c3c(CC4Nc5c(Cl)cccc5C(Nc5ccccc5Cl)C4c4c5n(c6ccccc46)[C@H]4N(O)CCC[C@@]4(CC)C=C5C(=O)OC)c4ccccc4n3[C@H]1N(O)CCC2 (stereo not given in full)", "SYSTEM": "L1210", "MODIFIER_SIGN": "<", "pIC50": 5.00}

* * *

Reported pIC50 values follow for various molecules
Test system: L1210
Assay: Cytotoxicity against L1210 cell proliferation, measured using microculture tetrazolium assay (MTA)
Assay type: functional, cell-based, Mus musculus
Settings: Mus musculus, L1210
pIC50: −log10 of the molar value.

{"MOLECULE": "CC[C@]12C=C(C(=O)OC)c3c(CC4Nc5ccc(Cl)cc5C(Nc5ccc(Cl)cc5)C4c4c5n(c6ccccc46)[C@H]4N(O)CCC[C@@]4(CC)C=C5C(=O)OC)c4ccccc4n3[C@H]1N(O)CCC2 (stereo not given in full)", "MODIFIER_SIGN": "<", "pIC50": 5.00}
{"MOLECULE": "CC[C@]12C=C(C(=O)OC)c3c(CC4Nc5cc(OC)c(OC)c(OC)c5CC4c4c5n(c6ccccc46)[C@H]4N(O)CCC[C@@]4(CC)C=C5C(=O)OC)c4ccccc4n3[C@H]1N(O)CCC2 (stereo not given in full)", "MODIFIER_SIGN": "=", "pIC50": 5.62}
{"MOLECULE": "CC[C@]12C=C(C(=O)OC)c3c(CC4Nc5ccc(F)cc5CC4c4c5n(c6ccccc46)[C@H]4N(O)CCC[C@@]4(CC)C=C5C(=O)OC)c4ccccc4n3[C@H]1N(O)CCC2 (stereo not given in full)", "MODIFIER_SIGN": "=", "pIC50": 5.74}
{"MOLECULE": "CC[C@]12C=C(C(=O)OC)c3c(CC4Nc5ccc(OC)cc5C(OC)C4c4c5n(c6ccccc46)[C@H]4N(O)CCC[C@@]4(CC)C=C5C(=O)OC)c4ccccc4n3[C@H]1N(O)CCC2 (stereo not given in full)", "MODIFIER_SIGN": "=", "pIC50": 5.77}
{"MOLECULE": "CC[C@]12C=C(C(=O)OC)c3c(CC4Nc5ccc(OC)cc5CC4c4c5n(c6ccccc46)[C@H]4N(O)CCC[C@@]4(CC)C=C5C(=O)OC)c4ccccc4n3[C@H]1N(O)CCC2 (stereo not given in full)", "MODIFIER_SIGN": "=", "pIC50": 5.66}
